// reported MIC90 for each item listed
Tested on: P. aeruginosa 6065Y
protocol: In vitro antibacterial activity test (broth microdilution)
Type: cell-based
test.settings: Pseudomonas aeruginosa, 6065Y
Write down the numeric answer in µg/mL and omit the unit.

molecule	assay.result
C[C@H](O/N=C(\C(=O)N[C@@H]1C(=O)N2C(C(=O)[O-])=C(/C=C/C[n+]3cnc(N)c(NCCN)c3)CSC12)c1csc(N)n1)C(=O)O (stereo partly drawn) [Compound 52]	4

# returns recorded MIC90 (system: P. aeruginosa 6065Y) for CC(C)(O/N=C(\C(=O)N[C@@H]1C(=O)N2C(C(=O)[O-])=C(/C=C/C[n+]3cnc(N)c(NC(=O)CCCN)c3N)CSC12)c1nc(N)sc1Cl)C(=O)O (stereo partly drawn) [Compound 67]
32

State its MIC90 on P. aeruginosa 6065Y: CC(C)(O/N=C(\C(=O)N[C@@H]1C(=O)N2C(C(=O)[O-])=C(C[n+]3cnc(N)c(NC(=O)CCN)c3)CSC12)c1csc(N)n1)C(=O)O (stereo partly drawn) [Compound 48]
16

From: patent US9630977B2
